# credit: ChEMBL document CHEMBL4316607

assay_notes: Total clearance in Sprague-Dawley rat at 0.5 mg/kg, iv dosed via cassette dosing
Assay type: ADME, organism-based
test_conditions: in vivo
Label scheme for clearance: lower than 6 mL/min/kg is label 0, 6 mL/min/kg and above is label 1.

Request: Item `C[C@@H]1CN(C(=O)C(=O)Nc2ccc3[nH]c(=O)oc3c2)CCN1c1ccc(F)c(F)c1` with clearance of 6 mL/min/kg or above?
Response: label 1

Request: Now consider `O=C(Nc1ccc2[nH]c(=O)oc2c1)C(=O)N1CCN(c2ccc(Cl)c(F)c2)CC1` .
Response: label 0

Request: Repeat with `O=C(c1cc(-c2ccc(=O)[nH]c2)on1)N1CCC(Cc2ccc(Cl)cc2)CC1`
Response: label 0

Request: Next up: `O=C(Nc1ccc2[nH]c(=O)oc2c1)C(=O)N1CCN(c2ccc(F)c(Cl)c2)CC1`
Response: label 1

Request: How about this molecule: `O=C(Nc1ccc2[nH]c(=O)oc2c1)C(=O)N1CCN(c2ccc(C(F)(F)F)cc2)CC1`
Response: label 1

Request: `O=C(Nc1ccc2[nH]c(=O)oc2c1)C(=O)N1CCN(c2ccc(F)cc2)CC1`
Response: label 1
